These entries and their values trace back to ChEMBL document CHEMBL5126582.

# Tested on: HCT-116
# assay text: Antiproliferative activity against human HCT-116 cells assessed as reduction in cell viability incubated for 48 hrs by MTS assay
# Assay type: functional, cell-based
# run conditions: HCT-116, 48 h
recorded endpoint: pIC50
Numbers only, as −log10 of the molar value.

| molecule | target or test system | pIC50 |
| --- | --- | --- |
| COc1cc(C(=O)c2nc(N3CCCC3)nc3cc(C)sc23)cc(OC)c1OC | HCT-116 | 5.76 |

Kindly consider the entry below.
Exercise: I'm curious: which pIC50 was measured for COc1cc(C(=O)c2nc(N3CCC(O)C3)nc3ccsc23)cc(OC)c1OC (stereo not given) tested on HCT-116?
Key: 5.85

---

# System: HCT-116
# assay text: Antiproliferative activity against human HCT-116 cells assessed as reduction in cell viability incubated for 48 hrs by MTS assay
# Format: functional, cell-based
# run conditions: HCT-116, 48 h
For each record, write down the corresponding IC50.
Give bare numbers, in nM.

| compound | IC50, nM |
| --- | --- |
| COc1ccc(/C=C\c2cc(OC)c(OC)c(OC)c2)cc1O [COMBRETASTATIN A4] | 1.1 |
| COc1cc(OC)cc(C(=O)c2nc(N3CCCC3)nc3ccsc23)c1 | 616 |
| COc1cc(C(=O)c2nc(NC3CCC3)nc3ccsc23)cc(OC)c1OC | 293 |
| CNc1nc(C(=O)c2cc(OC)c(OC)c(OC)c2)c2sccc2n1 | 114 |
| COc1nc(C(=O)c2cc(OC)c(OC)c(OC)c2)c2sccc2n1 | 329 |

Okay, here is my list. What is IC50 for each of these?
1. CCNc1nc(C(=O)c2cc(OC)c(OC)c(OC)c2)c2sccc2n1
2. COc1cc(C(=O)c2nc(N3CCC(F)(F)C3)nc3ccsc23)cc(OC)c1OC
3. COc1cc(C(=O)c2nc(N3CCC3)nc3ccsc23)cc(OC)c1OC
4. COc1cc(C(=O)c2nc(Cl)nc3ccsc23)cc(OC)c1OC

Key:
1: 309; 2: 507; 3: 278; 4: 225

---

# System: HCT-116
# assay text: Antiproliferative activity against human HCT-116 cells assessed as reduction in cell viability incubated for 48 hrs by MTS assay
# Type: functional, cell-based
# run conditions: HCT-116, 48 h
Answer each item with its documented pIC50.
Give bare numbers, as −log10 of the molar value.

// worked examples, pIC50 included
| compound smiles | test result |
| --- | --- |
| COc1cc(C(=O)c2nc(Nc3cccc(C)c3)nc3ccsc23)cc(OC)c1OC | 6.82 |
| COc1cc(C(=O)c2nc(N3CC=CC3)nc3ccsc23)cc(OC)c1OC | 7.59 |

Now for a further compound.
Exercise: Could you tell me which pIC50 is on file for COc1cc(C(=O)c2nc(N3CCCC3)nc3ccsc23)cc(OC)c1OC ?
Key: 7.68

---

Hi there, I'd appreciate the recorded IC50 for every entry that follows.
# assay text: Antiproliferative activity against human A549/PTX cells assessed as reduction in cell viability measured for 48 hrs by MTS assay
# Type: functional, cell-based
Answers are plain numbers, in nM.

| compound | IC50 (nM) |
| --- | --- |
| CC(=O)O[C@H]1C(=O)[C@@]2(C)[C@H]([C@H](OC(=O)c3ccccc3)[C@]3(O)C[C@H](OC(=O)[C@H](O)[C@@H](NC(=O)c4ccccc4)c4ccccc4)C(C)=C1C3(C)C)[C@]1(OC(C)=O)CO[C@@H]1C[C@@H]2O [PACLITAXEL] | 1020 |

Exercise: Fill blank: measured IC50 of the compound COc1cc(C(=O)c2nc(N3CCCC3)nc3ccsc23)cc(OC)c1OC is ____.
Key: 24.4

---

# assay text: Metabolic stability in rat liver microsomes assessed as intrinsic clearance incubated for 5 mins in presence of NADPH by HPLC analysis
# Format: ADME, Microsome
# run conditions: read-out: CLH
recorded endpoint: microsomal CLint (µL/min/mg)
One number for each entry, in µL/min/mg.

| compound smiles | microsomal CLint / µL/min/mg |
| --- | --- |
| O=C(O)Cc1ccccc1Nc1c(Cl)cccc1Cl | 64.2 |

From here, focus on the item given below.
Exercise: Name the reported microsomal CLint value associated with the compound COc1cc(C(=O)c2nc(N3CCCC3)nc3ccsc23)cc(OC)c1OC
Key: 40.8

---

# System: HCT-116
# assay text: Antiproliferative activity against human HCT-116 cells assessed as reduction in cell viability incubated for 48 hrs by MTS assay
# Assay type: functional, cell-based
# run conditions: HCT-116, 48 h
pIC50: −log10 of the molar value.
recorded endpoint: pIC50

Below: 2 compounds and their reported pIC50.
| compound smiles | target or test system | test result |
| --- | --- | --- |
| COc1cc(C(=O)c2nc(N3CCN(C)CC3)nc3ccsc23)cc(OC)c1OC | HCT-116 | < 5.00 |
| COc1ccc(C(=O)c2nc(N3CCCC3)nc3ccsc23)cc1 | HCT-116 | < 5.00 |

Turning to the following compound.
Exercise: Short answer please: pIC50, HCT-116, entry COc1cc(C(=O)c2nc(NC3CCCC3)nc3ccsc23)cc(OC)c1OC
Key: < 5.00
